molecular target: T1, human C5 R885H-mmh (human, UniProt P01031 19-1676); experiment: SPR, mAb captured via anti-hFc, 25C
T1 construct: also called human C5 variant R885H
attribute.measured: kon (M⁻¹ s⁻¹)
Supply the numeric figure in M⁻¹ s⁻¹, leaving out any unit text.

binder	result.units	kon
H4H12168P (antibody, human IgG4, V domains shown, Human IgG4 Fc with S108P hinge mutation (H4H)) VH: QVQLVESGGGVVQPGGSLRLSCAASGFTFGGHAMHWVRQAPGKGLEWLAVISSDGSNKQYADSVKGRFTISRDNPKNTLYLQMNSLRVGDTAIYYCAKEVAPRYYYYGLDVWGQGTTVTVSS VL: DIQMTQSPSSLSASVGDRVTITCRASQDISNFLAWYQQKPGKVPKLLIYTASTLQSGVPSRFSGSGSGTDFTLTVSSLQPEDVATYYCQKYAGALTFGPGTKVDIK	M⁻¹ s⁻¹	52900

Query :: Can you look up the measured kon of H4H12171P (antibody, human IgG4, V domains shown, Human IgG4 Fc with S108P hinge mutation (H4H)) VH: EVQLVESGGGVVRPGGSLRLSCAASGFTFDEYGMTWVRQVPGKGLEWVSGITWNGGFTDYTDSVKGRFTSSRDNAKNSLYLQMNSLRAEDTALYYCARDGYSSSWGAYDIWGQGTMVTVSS VL: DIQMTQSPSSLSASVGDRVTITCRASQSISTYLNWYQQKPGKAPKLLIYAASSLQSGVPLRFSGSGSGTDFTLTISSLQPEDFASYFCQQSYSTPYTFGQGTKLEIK for me?
Result :: 659000

Query :: Can you look up the measured kon of H4H12164P (antibody, human IgG4, V domains shown, Human IgG4 Fc with S108P hinge mutation (H4H)) VH: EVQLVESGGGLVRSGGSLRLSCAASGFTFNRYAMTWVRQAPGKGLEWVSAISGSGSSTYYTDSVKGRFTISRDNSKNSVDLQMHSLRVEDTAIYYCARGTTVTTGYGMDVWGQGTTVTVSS VL: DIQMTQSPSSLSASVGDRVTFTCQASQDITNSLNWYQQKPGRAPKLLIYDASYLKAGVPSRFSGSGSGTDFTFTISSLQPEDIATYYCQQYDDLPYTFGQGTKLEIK for me?
Result :: 158000
